system-under-test: T1, human C1s (human, UniProt P09871 16-688)
T1 construct: Analyte in the Biacore assays; also called hC1s; serum-derived human C1s (CompTech)
T1 sequence: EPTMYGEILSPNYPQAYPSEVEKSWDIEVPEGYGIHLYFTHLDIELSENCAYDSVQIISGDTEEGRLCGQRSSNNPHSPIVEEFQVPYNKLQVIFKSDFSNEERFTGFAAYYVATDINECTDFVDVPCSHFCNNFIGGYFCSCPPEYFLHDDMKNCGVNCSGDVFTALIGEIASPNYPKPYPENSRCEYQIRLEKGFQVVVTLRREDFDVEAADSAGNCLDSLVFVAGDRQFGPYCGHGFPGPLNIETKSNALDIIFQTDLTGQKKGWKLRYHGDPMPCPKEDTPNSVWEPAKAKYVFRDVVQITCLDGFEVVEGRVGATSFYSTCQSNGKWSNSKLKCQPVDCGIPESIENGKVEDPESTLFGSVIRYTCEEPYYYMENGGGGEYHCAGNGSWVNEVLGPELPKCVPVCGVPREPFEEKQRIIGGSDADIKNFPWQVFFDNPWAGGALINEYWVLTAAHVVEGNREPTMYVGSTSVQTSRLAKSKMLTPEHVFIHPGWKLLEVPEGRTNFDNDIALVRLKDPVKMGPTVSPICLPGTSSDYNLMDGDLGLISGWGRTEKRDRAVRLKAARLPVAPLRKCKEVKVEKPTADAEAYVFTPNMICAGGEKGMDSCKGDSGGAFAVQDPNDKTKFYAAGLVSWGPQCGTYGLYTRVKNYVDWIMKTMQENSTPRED
experimental-details: SPR; KD at pH 5.8 (3 uM Ca) over KD at pH 7.4 (1.2 mM Ca)
readout-type: KD 5(-)/7(+)

1) C1_IPN92H0231-SG4GK/IPN93L0024-SK1 (antibody, human IgG4 S228P, kappa, name in Kabat numbering, V domains shown, Substitutions from IPN009VH2, Kabat numbering; also called IPN92H0231/IPN93L0024) VH: EVMLVESGGGLVKPGGSLRLSCAASGFTFSNYAMSWVRQAPGKGLEWVATISSGGSHTYYLDSVKGRFTISRDNSKDTLYLQMNSLRAEDTALYYCARLFTKHAMDYWGQGTLVTVSS VL: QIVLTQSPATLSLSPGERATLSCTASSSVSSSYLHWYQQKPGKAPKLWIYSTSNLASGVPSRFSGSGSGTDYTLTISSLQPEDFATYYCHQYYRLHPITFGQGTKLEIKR: 4.06
2) C1_IPN92H0147-SG4GK/IPN93L0024-SK1 (antibody, human IgG4 S228P, kappa, name in Kabat numbering, V domains shown, Substitutions from IPN009VH2, Kabat numbering; also called IPN92H0147/IPN93L0024) VH: EVMLVESGGGLVKPGGSLRLSCAASGFTFSNYAMSWVRQAPGKGLEWVATISSGGSHDYYLDSVKGRFTISRDNSKDTLYLQMNSLRAEDTALYYCARLFTGHAMDYWGQGTLVTVSS VL: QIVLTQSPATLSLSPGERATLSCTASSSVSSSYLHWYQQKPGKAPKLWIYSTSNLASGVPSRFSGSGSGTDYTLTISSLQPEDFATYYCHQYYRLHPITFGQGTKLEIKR: 1.58
3) C1_IPN92H0159-SG4GK/IPN93L0024-SK1 (antibody, human IgG4 S228P, kappa, name in Kabat numbering, V domains shown, Substitutions from IPN009VH2, Kabat numbering; also called IPN92H0159/IPN93L0024) VH: EVMLVESGGGLVKPGGSLRLSCAASGFTFSNYAMSWVRQAPGKGLEWVATISSGGSHTYDLDSVKGRFTISRDNSKDTLYLQMNSLRAEDTALYYCARLFTGHAMDYWGQGTLVTVSS VL: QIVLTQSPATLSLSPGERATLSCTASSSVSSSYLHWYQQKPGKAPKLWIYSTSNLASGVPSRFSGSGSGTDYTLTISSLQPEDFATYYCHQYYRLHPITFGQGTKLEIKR: 3.57
4) C1_IPN92H0144-SG4GK/IPN93L0024-SK1 (antibody, human IgG4 S228P, kappa, name in Kabat numbering, V domains shown, Substitutions from IPN009VH2, Kabat numbering; also called IPN92H0144/IPN93L0024) VH: EVMLVESGGGLVKPGGSLRLSCAASGFTFSNYAMSWVRQAPGKGLEWVATISSGGSKTYYLDSVKGRFTISRDNSKDTLYLQMNSLRAEDTALYYCARLFTGHAMDYWGQGTLVTVSS VL: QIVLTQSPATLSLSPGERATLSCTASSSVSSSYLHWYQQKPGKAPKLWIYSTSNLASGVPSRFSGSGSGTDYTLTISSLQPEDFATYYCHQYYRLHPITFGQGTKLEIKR: 1.54
5) C1_IPN92H0188-SG4GK/IPN93L0024-SK1 (antibody, human IgG4 S228P, kappa, name in Kabat numbering, V domains shown, Substitutions from IPN009VH2, Kabat numbering; also called IPN92H0188/IPN93L0024) VH: EVMLVESGGGLVKPGGSLRLSCAASGFTFSNYAMSWVRQAPGKGLEWVATISSGGSHTYYLDSVDGRFTISRDNSKDTLYLQMNSLRAEDTALYYCARLFTGHAMDYWGQGTLVTVSS VL: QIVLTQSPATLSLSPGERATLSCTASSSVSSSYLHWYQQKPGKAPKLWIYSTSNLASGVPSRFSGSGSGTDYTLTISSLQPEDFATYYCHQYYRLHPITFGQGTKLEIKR: 2.07

Every entry's value here was drawn from patent US20210032365A1.
